Reference source: paper PMC10786919

# System: HCT116 cells
# procedure.text: Lactate dehydrogenase (LDH) release assay
# Assay type: cell-based
Positions of bridges follow the written chain, without caps; N, C: chain ends. Non-standard residues stand in square brackets, D forms with d. Residues, ends and D or L forms follow the SMILES beside them. R8 = C=CCCCCCC[C@@](C)(N)C(=O)O; Cba = N[C@@H](CC1CCC1)C(=O)O; R5 = C=CCCC[C@@](C)(N)C(=O)O; S5 = C=CCCC[C@](C)(N)C(=O)O; Aib = CC(C)(N)C(=O)O
readout.kind: LDH: Cytotoxicity assay % Effect (%)

CC(=O)N[C@H](C(=O)N[C@@H](CO)C(=O)N[C@@H](Cc1ccccc1)C(=O)N[C@]1(C)CCCCCCC=CCCC[C@@](C)(C(N)=O)NC(=O)[C@H](CC(C)C)NC(=O)[C@H](CC(C)C)NC(=O)[C@H](C)NC(=O)[C@H](Cc2c[nH]c3ccccc23)NC(=O)[C@H](Cc2ccc(O)cc2)NC(=O)[C@H](Cc2c[nH]cn2)NC1=O)[C@@H](C)O [MP-138] (Ac-TSF[R8]HYWALL[S5]-NH2; staple 4-11); 0.2053
CC(=O)N[C@H](C(=O)N[C@@H](CO)C(=O)N[C@@H](Cc1ccccc1)C(=O)NC(C)(C)C(=O)N[C@@H](CCC(=O)O)C(=O)N[C@@H](Cc1ccc(O)cc1)C(=O)N[C@@H](Cc1c[nH]c2ccccc12)C(=O)N[C@@H](C)C(=O)N[C@@H](CC(C)C)C(=O)N[C@@H](CC1CCC1)C(=O)NC(C)(C)C(N)=O)[C@@H](C)O [MP-1154] (Ac-TSF[Aib]EYWAL[Cba][Aib]-NH2); 17.78
CC(=O)N1CCC[C@H]1C(=O)N[C@@H](CCCNC(=N)N)C(=O)N[C@@H](Cc1ccccc1)C(=O)N[C@]1(C)CCCCCCC=CCCC[C@@](C)(C(N)=O)NC(=O)[C@H](CC(C)C)NC(=O)[C@H](CCCNC(=N)N)NC(=O)[C@H](CC(C)C)NC(=O)[C@H](Cc2c[nH]c3ccccc23)NC(=O)[C@H](Cc2ccc(O)cc2)NC(=O)[C@H](CCC(=O)O)NC1=O [MP-031] (Ac-PRF[R8]EYWLRL[S5]-NH2; staple 4-11); -3.388
CC(=O)N[C@H](C(=O)N[C@@H](CO)C(=O)N[C@@H](Cc1ccccc1)C(=O)N[C@]1(C)CCCC=CCCCCCC[C@@](C)(C(N)=O)NC(=O)[C@H](CC(C)C)NC(=O)[C@H](CC(C)C)NC(=O)[C@H](C)NC(=O)[C@H](Cc2c[nH]c3ccccc23)NC(=O)[C@H](Cc2ccc(O)cc2)NC(=O)[C@H](CCC(=O)O)NC1=O)[C@@H](C)O; 37.58
CC(=O)N[C@H](C(=O)N[C@@H](CO)C(=O)N[C@@H](Cc1ccccc1)C(=O)N[C@]1(C)CCCC=CCCC[C@](C)(C(=O)N[C@@H](CC(C)C)C(=O)N[C@@H](CC(C)C)C(=O)N[C@@H](CO)C(=O)N[C@@H](CCC(=O)O)C(=O)N[C@@H](CC(N)=O)C(=O)N[C@@H](Cc2ccccc2)C(N)=O)NC(=O)[C@H](Cc2c[nH]c3ccccc23)NC(=O)[C@H](Cc2ccc(O)cc2)NC(=O)[C@H](CCC(=O)O)NC1=O)[C@@H](C)O [MP-167] (Ac-TSF[R5]EYW[R5]LLSENF-NH2; staple 4-8); 34.73
